# System: 697 (B-Lymphoblastic Leukemia)
# protocol: combination Emax (second highest fraction inhibited in the dose matrix, 72 h); higher = more inhibition; extreme values may be limits of the assay
readout-kind: combination Emax

CCc1c2c(nc3ccc(O)cc13)-c1cc3c(c(=O)n1C2)COC(=O)[C@]3(O)CC [SN-38] + O=C(c1cc(Cc2n[nH]c(=O)c3ccccc23)ccc1F)N1CCN(C(=O)C2CC2)CC1 [Olaparib] (first compound max 0.3 µM, 7x7, partner max 10 µM)    1
COc1nnc2ccc(N3CCC(c4ccc(OCCN5CCN(C)C(=O)[C@H]5C)cc4)CC3)nn12 [AZD5153] + CC1(C)CCC(CN2CCN(c3ccc(C(=O)NS(=O)(=O)c4ccc(NCC5CCOCC5)c([N+](=O)[O-])c4)c(Oc4cnc5[nH]ccc5c4)c3)CC2)=C(c2ccc(Cl)cc2)C1 [Venetoclax] (first compound max 1 µM, 7x7, partner max 1 µM)    1
NC1(C(=O)N[C@@H](CCO)c2ccc(Cl)cc2)CCN(c2ncnc3[nH]ccc23)CC1 [Capivasertib] + CC(=O)c1c(C)c2cnc(Nc3ccc(N4CCNCC4)cn3)nc2n(C2CCCC2)c1=O [Palbociclib] (first compound max 10 µM, 7x7, partner max 10 µM)    0.838
CN(C)CCCOc1ccc(-c2ccc3ncc4c(c3c2)n(C2CCOCC2)c(=O)n4C)cn1 [AZD0156] + C[C@@H]1COCCN1C2=NC(=NC(=C2)C3(CC3)[S@](=N)(=O)C)C4=C5C=CNC5=NC=C4 [AZD6738] (first compound max 1 µM, 7x7, partner max 10 µM)    1
CN(CCO)CC[C@H](CSc1ccccc1)Nc1ccc(S(=O)(=O)NC(=O)c2ccc(N3CCC([C@@H](O)c4ccccc4-c4ccc(Cl)cc4)CC3)cc2)cc1S(=O)(=O)C(F)(F)F [AZD4320] + CN(C)CCCOc1ccc(-c2ccc3ncc4c(c3c2)n(C2CCOCC2)c(=O)n4C)cn1 [AZD0156] (first compound max 1 µM, 7x7, partner max 1 µM)    1
C=CCn1c(=O)c2cnc(Nc3ccc(N4CCN(C)CC4)cc3)nc2n1-c1cccc(C(C)(C)O)n1 [AZD1775] + C[C@@H]1COCCN1C2=NC(=NC(=C2)C3(CC3)[S@](=N)(=O)C)C4=C5C=CNC5=NC=C4 [AZD6738] (first compound max 1 µM, partner max 10 µM)    1
CC(=O)Nc1cccc(-n2c(=O)n(C3CC3)c(=O)c3c(Nc4ccc(I)cc4F)n(C)c(=O)c(C)c32)c1 [Trametinib] + Cc1nc(-c2cn3c(n2)-c2ccc(-c4cnn(C(C)(C)C(N)=O)c4)cc2OCC3)n(C(C)C)n1 [Taselisib] (first compound max 1 µM, 7x7, partner max 10 µM)    0.653
Cn1cnc2c(F)c(Nc3ccc(Br)cc3Cl)c(C(=O)NOCCO)cc21 [Selumetinib] + C=CCn1c(=O)c2cnc(Nc3ccc(N4CCN(C)CC4)cc3)nc2n1-c1cccc(C(C)(C)O)n1 [AZD1775] (first compound max 10 µM, partner max 1 µM)    1
CC(=O)c1c(C)c2cnc(Nc3ccc(N4CCNCC4)cn3)nc2n(C2CCCC2)c1=O [Palbociclib] + CN(CC[C@H](CSC1=CC=CC=C1)NC2=C(C=C(C=C2)S(=O)(=O)NC(=O)C3=CC=C(C=C3)N4CCC(CC4)[C@H](C5=CC=CC=C5C6=CC=C(C=C6)Cl)O)S(=O)(=O)C(F)(F)F)CCO [AZD4320] (first compound max 10 µM, 7x7, partner max 1 µM)    1
CC1(C)CCC(CN2CCN(c3ccc(C(=O)NS(=O)(=O)c4ccc(NCC5CCOCC5)c([N+](=O)[O-])c4)c(Oc4cnc5[nH]ccc5c4)c3)CC2)=C(c2ccc(Cl)cc2)C1 [Venetoclax] + Cn1cnc2c(F)c(Nc3ccc(Br)cc3Cl)c(C(=O)NOCCO)cc21 [Selumetinib] (first compound max 1 µM, 7x7, partner max 3 µM)    1
Cc1nc(Nc2ncc(C(=O)Nc3c(C)cccc3Cl)s2)cc(N2CCN(CCO)CC2)n1 [Dasatinib] + CC(=O)Nc1cccc(-n2c(=O)n(C3CC3)c(=O)c3c(Nc4ccc(I)cc4F)n(C)c(=O)c(C)c32)c1 [Trametinib] (first compound max 2 µM, 7x7, partner max 1 µM)    0.708
CN(CCO)CC[C@H](CSc1ccccc1)Nc1ccc(S(=O)(=O)NC(=O)c2ccc(N3CCC([C@@H](O)c4ccccc4-c4ccc(Cl)cc4)CC3)cc2)cc1S(=O)(=O)C(F)(F)F [AZD4320] + C1CN(CCC1(C(=O)N[C@@H](CCO)C2=CC=C(C=C2)Cl)N)C3=NC=NC4=C3C=CN4 [Capivasertib] (first compound max 1 µM, 7x7, partner max 3 µM)    1
COc1nnc2ccc(N3CCC(c4ccc(OCCN5CCN(C)C(=O)[C@H]5C)cc4)CC3)nn12 [AZD5153] + Cn1cnc2c(F)c(Nc3ccc(Br)cc3Cl)c(C(=O)NOCCO)cc21 [Selumetinib] (first compound max 1 µM, 7x7, partner max 10 µM)    1
